# System: UCD52 (cells of a triple-negative basal-like breast cancer xenograft)
# PROTOCOL_DESCRIPTION: cell viability of combination (% of vehicle); higher = less cytotoxic
# EXPERIMENTAL_CONTEXT: 1 µM; 72 h; partner dose: 10 nM
REPORTED_ENDPOINT: cell viability of combination

{"columns": ["COMPOUND", "TESTED_TARGET", "READOUT_VALUE"],
 "data": [
  ["CS(=O)(=O)O.Cc1c(O)cccc1C(=O)NC(CSc1ccccc1)C(O)CN1CC2CCCCC2CC1C(=O)NC(C)(C)C (centres undefined) [Nelfinavir Mesylate] + CN(C)C/C=C/C(=O)Nc1cc2c(Nc3ccc(F)c(Cl)c3)ncnc2cc1O[C@H]1CCOC1", "UCD52", 47.9],
  ["COc1cccc2c1C(=O)c1c(O)c3c(c(O)c1C2=O)CC(O)(C(=O)CO)CC3OC1CC(N)C(O)C(C)O1.Cl (centres undefined) [Doxorubicin (Adriamycin) HCl] + CN(C)C/C=C/C(=O)Nc1cc2c(Nc3ccc(F)c(Cl)c3)ncnc2cc1O[C@H]1CCOC1 [Afatinib]", "UCD52", 40.9],
  ["CC1(C)CCC(c2ccc(Cl)cc2)=C(CN2CCN(c3ccc(C(=O)NS(=O)(=O)c4ccc(NC(CCN5CCOCC5)CSc5ccccc5)c(S(=O)(=O)C(F)(F)F)c4)cc3)CC2)C1 (centres undefined) [ABT-263 (Navitoclax)] + CN(C)C/C=C/C(=O)Nc1cc2c(Nc3ccc(F)c(Cl)c3)ncnc2cc1O[C@H]1CCOC1", "UCD52", 38],
  ["COc1ccc(CN2CCN(C(c3ccc(F)cc3)c3ccc(F)cc3)CC2)c(OC)c1OC.Cl.Cl [Lomerizine HCl] + CN(C)C/C=C/C(=O)Nc1cc2c(Nc3ccc(F)c(Cl)c3)ncnc2cc1O[C@H]1CCOC1", "UCD52", 68.9]
]}

Provenance of the data: the supplement of paper PMC6992640
